relative affinity for assorted binders
Molecular target: T1, HLA-DR1 (HLA-DRB1*01:01) (human)
T1 construct: mature; class II HLA molecule purified from homozygous EBV-transformed lymphoblastoid cells with antibody L243
Experiment: competition ELISA vs biotin-HA 306-318;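 also: HLA and competitor incubated 24 to 72 h, maximal signal taken from wells lacking competitor, background from wells lacking HLA molecule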
No end group written: not given here.

// worked examples, relative affinity included
HFPPSQIAAGAFCLA-NH2 [CCNB1 338-352] | 598
NCVPKKMLQLVGVTA-NH2 [CCNB1 237-251] | 4
RQLEEEQAVRPKYLL-NH2 [CCNB1 179-193] | 9000
KPLEKVPMLVPVPVS-NH2 [CCNB1 81-95] | 524
MELTMLDYDMVHFPP-NH2 [CCNB1 327-341] | 418

Let us move to another entry and its relative affinity.
Record request: relative affinity value, item QAFSDVILAVNDVDA-NH2 [CCNB1 144-158]
1730

Data origin, for the record: patent US20180086804A1
